The origin of these recorded values is paper PMC10644342.

Hi there, I'd appreciate the recorded MIC for every entry that follows.
- System: S. epidermidis
- test: MIC, broth microdilution (CLSI)
- Assay type: cell-based, Staphylococcus epidermidis
- test_parameters: Staphylococcus epidermidis, strain 771; read-out: minimum inhibitory concentration
One number for each entry, in µg/mL.

// worked examples, MIC included
COc1ccc2c(ccc3occ(CC(=O)OCC(=O)Nc4nnc(-c5cccc(Cl)c5)o4)c32)c1 [Compound 11]
2
O=C(COC(=O)Cc1coc2ccc3ccccc3c12)Nc1nnc(-c2ccc(S(F)(F)(F)(F)F)cc2)o1 [Compound 13]
0.5

Query: Supply measured MIC of COc1ccc2c(ccc3occ(CC(=O)OCC(=O)Nc4nnc(-c5ccccc5)o4)c32)c1 [Compound 9] in your reply.
Reply: 64
